List of EC50 values.
# targetDesc: Menin-MLL (Homo sapiens (Human))
# Sequence (O00255 whole entry): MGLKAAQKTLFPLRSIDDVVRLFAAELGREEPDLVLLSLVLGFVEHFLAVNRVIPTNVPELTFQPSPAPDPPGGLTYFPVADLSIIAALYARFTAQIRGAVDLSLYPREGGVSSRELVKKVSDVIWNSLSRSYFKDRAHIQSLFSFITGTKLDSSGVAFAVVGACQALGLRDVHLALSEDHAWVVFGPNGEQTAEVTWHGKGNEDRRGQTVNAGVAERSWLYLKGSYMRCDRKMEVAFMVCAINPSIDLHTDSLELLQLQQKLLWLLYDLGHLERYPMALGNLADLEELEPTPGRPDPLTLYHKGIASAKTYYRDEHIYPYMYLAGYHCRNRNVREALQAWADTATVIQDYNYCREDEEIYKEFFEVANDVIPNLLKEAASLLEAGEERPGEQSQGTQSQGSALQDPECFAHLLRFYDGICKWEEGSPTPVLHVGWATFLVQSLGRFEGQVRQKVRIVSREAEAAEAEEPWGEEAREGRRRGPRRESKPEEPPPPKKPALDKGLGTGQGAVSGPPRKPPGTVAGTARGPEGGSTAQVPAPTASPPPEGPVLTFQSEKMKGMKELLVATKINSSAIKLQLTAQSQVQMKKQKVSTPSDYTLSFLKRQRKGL
# assayExplanation: Determination of binding constants (Ki) to Menin-MLL (HTRF)
# conditionsUsed: HTRF; 0.25 nM H-FL-Menin, 3.2 nM FITC-MLL-4-43, 24 hr incubation

>>> result("CC(C)N(C(=O)c1cc(F)ccc1Oc1cncnc1N1CC2(CCN(C[C@@H]3CC[C@@H](NS(=O)(=O)C4CCOCC4)CO3)CC2)C1)C(C)C")
"< 50 nM"
>>> result("CCN(C(=O)c1cc(F)ccc1Oc1cncnc1N1CC2(CCN(C[C@@H]3CC[C@@H](NC(=O)NCC(F)F)CO3)CC2)C1)C(C)C")
"50 to 100 nM"
>>> result("C[C@@H]1COC[C@H](C)N1C(=O)c1cc(F)ccc1Oc1cncnc1N1CC2(CCN(C[C@@H]3CC[C@@H](NS(=O)(=O)C4CC4)CO3)CC2)C1")
"< 50 nM"
>>> result("COCCN(C(=O)c1cc(F)ccc1Oc1cncnc1N1CC2(CCN(C[C@@H]3CC[C@@H](NS(=O)(=O)c4ccccc4)CO3)CC2)C1)C(C)C")
"< 50 nM"
>>> result("CCN(C(=O)c1cc(F)ccc1Oc1cncnc1N1CC2(CCN(C[C@@H]3CC[C@@H](NS(=O)(=O)C4CCOCC4)CO3)CC2)C1)C(C)C")
"< 50 nM"

Return the recorded EC50 value; entry: `CCN(C(=O)c1cc(F)ccc1Oc1cncnc1N1CC2(CCN(C[C@@H]3CC[C@@H](NS(=O)(=O)CC)CO3)CC2)C1)C(C)C` < 50 nM

###

# targetDesc: Menin-MLL (Homo sapiens (Human))
# assayExplanation: Determination of binding constants (Ki) to Menin-MLL (HTRF)
# conditionsUsed: HTRF; 0.25 nM H-FL-Menin, 3.2 nM FITC-MLL-4-43, 24 hr incubation; read-out: Menin-MLL Ki HTRF Assay: Ki
measuredParameter: Ki

State, in one line, measured Ki of CCN(C(=O)c1cc(F)ccc1Oc1cncnc1N1CC2(CCN(C[C@@H]3CC[C@@H](NS(=O)(=O)N(C)C)CO3)CC2)C1)C(C)C [Compound 49] < 1 nM

Find the measured Ki of CC(C)N(CC(F)F)C(=O)c1cc(F)ccc1Oc1cncnc1N1CC2(CCN(C[C@@H]3CC[C@@H](NS(C)(=O)=O)CO3)CC2)C1 [Compound 96] and report it. < 1 nM

Give me measured Ki, please, for this compound: CCN(C(=O)c1cc(F)ccc1Oc1cncnc1N1CC2(CCN(C[C@@H]3CC[C@@H](NS(=O)(=O)C4CCC4)CO3)CC2)C1)C(C)C [Compound 6] < 1 nM

###

Reported values of IC50 for individual entries
# Test system: MV4-11 cells
# assayExplanation: Cell proliferation assay MV4;11 (CellTiter-Glo, 72 hours)
# Format: cell-based
# conditionsUsed: Homo sapiens; MV4;11 leukemia cell line, 72 hours; read-out: MV4; 11 IC50

Answered cases to consult:
>>> result("CC(C)N(C(=O)c1cc(F)ccc1Oc1cncnc1N1CC2(CCN(C[C@@H]3CC[C@@H](NS(=O)(=O)C4CC4)CO3)CC2)C1)[C@@H]1CCOC1 [Example 164]")
"< 100 nM"
>>> result("Cc1nc(S(=O)(=O)N[C@@H]2CC[C@@H](CN3CCC4(CC3)CN(c3ncncc3Oc3ccc(F)cc3C(=O)N3[C@H](C)COC[C@H]3C)C4)OC2)cs1 [Example 122]")
"< 100 nM"
>>> result("CCN(C(=O)c1cc(F)ccc1Oc1cncnc1N1CC2(CCN(C[C@@H]3CC[C@@H](NS(=O)(=O)C4COC4)CO3)CC2)C1)C(C)C [Example 5]")
"< 100 nM"
>>> result("CCN(C(=O)c1cc(F)ccc1Oc1cncnc1N1CC2(CCN(C[C@H]3CC[C@H](NS(=O)(=O)CC)CO3)CC2)C1)C(C)C [Example 52]")
"100 to 1000 nM"
>>> result("C[C@@H]1COC[C@@H](C)N1C(=O)c1cc(F)ccc1Oc1cncnc1N1CC2(CCN(C[C@@H]3CC[C@@H](NS(=O)(=O)c4ccccc4)CO3)CC2)C1 [Example 120]")
"< 100 nM"

Name the recorded IC50 of the molecule listed here: CC(C)N(CC(F)F)C(=O)c1cc(F)ccc1Oc1cncnc1N1CC2(CCN(C[C@@H]3CC[C@@H](NS(=O)(=O)NCC4CC4)CO3)CC2)C1 [Example 148] < 100 nM
